Assay: Cytotoxicity against African green monkey Vero cells assessed as cell destruction incubated for 4 days by neutral red dye uptake based spectrophotometric analysis
Format: toxicity
Conditions: chlorocebus sabaeus, time 4 day
Checkbox rule: CC50 at 96 h lower than 200 µM = 1; CC50 at 96 h not lower than 200 µM = 0.

Identify whether the compound CC(=O)c1c(C)nc(-c2ccc(C(F)(F)F)cc2)n1O records CC50 at 96 h below 200 µM.
1

Identify whether the compound CC1(C)CC(=O)c2c(n(Cc3ccccc3)c(-c3ccc([N+](=O)[O-])cc3)[n+]2[O-])C1 records CC50 at 96 h below 200 µM.
0

Identify whether the compound CC(=O)c1c(C)n(C)c(-c2ccc(C#N)cc2)[n+]1[O-] records CC50 at 96 h below 200 µM.
0

Identify whether the compound Cc1ccc(C)c(COn2c(-c3ccc([N+](=O)[O-])cc3)nc3c2C(=O)CC(C)(C)C3)c1 records CC50 at 96 h below 200 µM.
1

* * *

Test: Selectivity index, ratio of CC50 for cytotoxicity against African green monkey Vero cells to IC50 for antiviral activity against Vaccinia virus Copenhagen infected in African green monkey Vero cells
Type: toxicity, cell-based
Conditions: read-out: Ratio CC50/IC50
Checkbox rule: selectivity ratio lower than 30 = YES; selectivity ratio not lower than 30 = NO.

Identify whether the compound Cn1c2c([n+]([O-])c1-c1ccc([N+](=O)[O-])cc1)C(=O)CC(C)(C)C2 records selectivity ratio below 30.
YES

Identify whether the compound CC(=O)c1c(C)nc(-c2ccc(C(F)(F)F)cc2)n1O records selectivity ratio below 30.
NO

Identify whether the compound COc1ccc(-c2nc(C)c(C(C)=O)n2OC)cc1 records selectivity ratio below 30.
YES

Identify whether the compound COn1c(-c2ccc(C#N)cc2)nc(C)c1C(C)=O records selectivity ratio below 30.
YES

Identify whether the compound CC1(C)CC(=O)c2c(n(Cc3ccccc3)c(-c3ccc([N+](=O)[O-])cc3)[n+]2[O-])C1 records selectivity ratio below 30.
YES

Identify whether the compound Cc1ccc(C)c(COn2c(-c3ccc([N+](=O)[O-])cc3)nc3c2C(=O)CC(C)(C)C3)c1 records selectivity ratio below 30.
NO

Identify whether the compound CC1(C)CC(=O)c2c(nc(-c3ccc([N+](=O)[O-])cc3)n2OCc2ccccc2Br)C1 records selectivity ratio below 30.
NO

Identify whether the compound CC1(C)CC(=O)c2c(nc(-c3ccc([N+](=O)[O-])cc3)n2O)C1 records selectivity ratio below 30.
NO

Identify whether the compound CC1(C)CC(=O)c2c(nc(-c3ccc([N+](=O)[O-])cc3)n2OCc2ccc(Cl)c(Cl)c2)C1 records selectivity ratio below 30.
NO

Identify whether the compound O=C(NNC(=O)C1C2C=CC(C3CC23)C1C(=O)O)c1ccc(C(F)(F)F)cc1 (stereo not given) records selectivity ratio below 30.
NO

* * *

Record form. Attribute: selectivity ratio. Fill in for each entry.
Experiment: Selectivity index, ratio of CC50 for cytotoxicity against African green monkey Vero cells to IC50 for antiviral activity against Cowpox virus Grishak infected in African green monkey Vero cells
Type: toxicity, cell-based
Conditions: read-out: Ratio CC50/IC50
Lab note: record just the number, no unit beside it.

Assign selectivity ratio to the following record: COn1c(-c2ccc([N+](=O)[O-])cc2)nc2c1C(=O)CC(C)(C)C2
65

Assign selectivity ratio to the following record: Nc1ccn(C[C@@H](CO)OCP(=O)(O)O)c(=O)n1 [CIDOFOVIR ANHYDROUS]
23

Assign selectivity ratio to the following record: O=C(NNC(=O)C1C2C=CC(C3CC23)C1C(=O)O)c1ccc(C(F)(F)F)cc1 (stereo not drawn)
133000

Assign selectivity ratio to the following record: CC1(C)CC(=O)c2c(nc(-c3ccc(C#N)cc3)n2O)C1
10

Assign selectivity ratio to the following record: COn1c(-c2ccc([N+](=O)[O-])cc2)nc(C)c1C(C)=O
20

Assign selectivity ratio to the following record: CC1(C)CC(=O)c2c(nc(-c3ccc([N+](=O)[O-])cc3)n2OCc2ccc(Cl)c(Cl)c2)C1
15

* * *

Assay: Selectivity index, ratio of CC50 for cytotoxicity against African green monkey Vero cells to IC50 for antiviral activity against Cowpox virus Grishak infected in African green monkey Vero cells
Type: toxicity, cell-based
Conditions: read-out: Ratio CC50/IC50
measured.attribute: selectivity ratio
Lab note: record just the number, no unit beside it.

Assign selectivity ratio to the following record: CC1(C)CC(=O)c2c(nc(-c3ccc(C(F)(F)F)cc3)n2O)C1
19

Assign selectivity ratio to the following record: CC1(C)CC(=O)c2c(nc(-c3ccc([N+](=O)[O-])cc3)n2O)C1
123

Assign selectivity ratio to the following record: CC1(C)CC(=O)c2c(nc(-c3ccc([N+](=O)[O-])cc3)n2OCc2ccccc2)C1
15

* * *

Assay: Selectivity index, ratio of CC50 for cytotoxicity against African green monkey Vero cells to IC50 for antiviral activity against Ectromelia virus K-1 infected in African green monkey Vero cells
Type: toxicity, cell-based
Settings: read-out: Ratio CC50/IC50
Checkbox rule: selectivity ratio lower than 90 = label 1; selectivity ratio not lower than 90 = label 0.

Identify whether the compound O=C(NNC(=O)C1C2C=CC(C3CC23)C1C(=O)O)c1ccc(C(F)(F)F)cc1 (stereo not drawn) records selectivity ratio below 90.
label 0

Identify whether the compound CC1(C)CC(=O)c2c(nc(-c3ccc(C#N)cc3)n2O)C1 records selectivity ratio below 90.
label 1

Identify whether the compound CC1(C)CC(=O)c2c(nc(-c3ccc([N+](=O)[O-])cc3)n2OCc2ccccc2Br)C1 records selectivity ratio below 90.
label 1

Identify whether the compound Cc1ccc(C)c(COn2c(-c3ccc([N+](=O)[O-])cc3)nc3c2C(=O)CC(C)(C)C3)c1 records selectivity ratio below 90.
label 1

Identify whether the compound Nc1ccn(C[C@@H](CO)OCP(=O)(O)O)c(=O)n1 [CIDOFOVIR ANHYDROUS] records selectivity ratio below 90.
label 1

Identify whether the compound CC1(C)CC(=O)c2c(nc(-c3ccc([N+](=O)[O-])cc3)n2O)C1 records selectivity ratio below 90.
label 0

Identify whether the compound COn1c(-c2ccc([N+](=O)[O-])cc2)nc(C)c1C(C)=O records selectivity ratio below 90.
label 1

Identify whether the compound CC(=O)c1c(C)nc(-c2ccc([N+](=O)[O-])cc2)n1O records selectivity ratio below 90.
label 1

Identify whether the compound CC1(C)CC(=O)c2c(nc(-c3ccc([N+](=O)[O-])cc3)n2OCc2ccc(Cl)c(Cl)c2)C1 records selectivity ratio below 90.
label 1

Identify whether the compound CC1(C)CC(=O)c2c(nc(-c3ccc([N+](=O)[O-])cc3)n2OCc2ccccc2)C1 records selectivity ratio below 90.
label 1

Identify whether the compound CC1(C)CC(=O)c2c(nc(-c3ccc([N+](=O)[O-])cc3)n2OCc2c(F)cccc2F)C1 records selectivity ratio below 90.
label 1

Identify whether the compound CC1(C)CC(=O)c2c(nc(-c3ccc(C(F)(F)F)cc3)n2O)C1 records selectivity ratio below 90.
label 0

* * *

Record form. Attribute: IC50. Fill in for each entry.
Tested on: Vaccinia virus
Assay: Antiviral activity against Vaccinia virus Copenhagen infected in African green monkey Vero cells assessed as inhibition of virus-induced cytotoxicity incubated for 4 days by neutral red dye uptake based spectrophotometric analysis
Assay type: functional, organism-based, Orthopoxvirus vaccinia
Settings: Orthopoxvirus vaccinia, Copenhagen, Vero, 96 h; read-out: IC50
The reply should read as a number followed by its unit.

Assign IC50 to the following record: Cc1ccc(C)c(COn2c(-c3ccc([N+](=O)[O-])cc3)nc3c2C(=O)CC(C)(C)C3)c1
1340 nM

Assign IC50 to the following record: CC(=O)c1c(C)nc(-c2ccc(C#N)cc2)n1O
1120 nM

Assign IC50 to the following record: COc1ccc(-c2nc(C)c(C(C)=O)n2OC)cc1
207000 nM

* * *

Record form. Attribute: log10 CC50 at 96 h. Fill in for each entry.
Test: Cytotoxicity against African green monkey Vero cells assessed as cell destruction incubated for 4 days by neutral red dye uptake based spectrophotometric analysis
Assay type: toxicity
Details: chlorocebus sabaeus, time 4 day
Would you kindly interpret these values as log10 of CC50 at 96 h expressed in µM?

Assign log10 CC50 at 96 h to the following record: CC1(C)CC(=O)c2c(nc(-c3ccc([N+](=O)[O-])cc3)n2OCc2c(F)cccc2F)C1
1.71

Assign log10 CC50 at 96 h to the following record: CC(=O)c1c(C)nc(-c2ccc([N+](=O)[O-])cc2)n1O
1.45

Assign log10 CC50 at 96 h to the following record: Nc1ccn(C[C@@H](CO)OCP(=O)(O)O)c(=O)n1 [CIDOFOVIR ANHYDROUS]
3.05

Assign log10 CC50 at 96 h to the following record: COn1c(-c2ccc(C(F)(F)F)cc2)nc(C)c1C(C)=O
2.25

Assign log10 CC50 at 96 h to the following record: CC(=O)c1c(C)nc(-c2ccc(C#N)cc2)n1O
1.93

Assign log10 CC50 at 96 h to the following record: CC(=O)c1c(C)n(C)c(-c2ccc([N+](=O)[O-])cc2)[n+]1[O-]
3.47

Assign log10 CC50 at 96 h to the following record: CC1(C)CC(=O)c2c(nc(-c3ccc([N+](=O)[O-])cc3)n2OCc2ccccc2Br)C1
2.00

Assign log10 CC50 at 96 h to the following record: CC1(C)CC(=O)c2c(nc(-c3ccc([N+](=O)[O-])cc3)n2O)C1
2.15

Assign log10 CC50 at 96 h to the following record: COn1c(-c2ccc([N+](=O)[O-])cc2)nc2c1C(=O)CC(C)(C)C2
3.06

Assign log10 CC50 at 96 h to the following record: COc1ccc(-c2nc(C)c(C(C)=O)n2O)cc1
2.79

Assign log10 CC50 at 96 h to the following record: COn1c(-c2ccc(C#N)cc2)nc(C)c1C(C)=O
3.03

Assign log10 CC50 at 96 h to the following record: COc1ccc(-c2nc(C)c(C(C)=O)n2OC)cc1
2.55

Assign log10 CC50 at 96 h to the following record: Cn1c2c([n+]([O-])c1-c1ccc(C(F)(F)F)cc1)C(=O)CC(C)(C)C2
3.32

Assign log10 CC50 at 96 h to the following record: CC1(C)CC(=O)c2c(nc(-c3ccc(C#N)cc3)n2O)C1
2.24

Assign log10 CC50 at 96 h to the following record: COn1c(-c2ccc(C#N)cc2)nc2c1C(=O)CC(C)(C)C2
2.88

Assign log10 CC50 at 96 h to the following record: CC(=O)c1c(C)nc(-c2ccc(N(C)C)cc2)n1O
2.48

Assign log10 CC50 at 96 h to the following record: COn1c(-c2ccc([N+](=O)[O-])cc2)nc(C)c1C(C)=O
2.65

Assign log10 CC50 at 96 h to the following record: CC1(C)CC(=O)c2c(nc(-c3ccc([N+](=O)[O-])cc3)n2OCc2ccc(Cl)c(Cl)c2)C1
2.04

Assign log10 CC50 at 96 h to the following record: CC1(C)CC(=O)c2c(nc(-c3ccc([N+](=O)[O-])cc3)n2OCc2ccccc2)C1
3.06

Assign log10 CC50 at 96 h to the following record: Cn1c2c([n+]([O-])c1-c1ccc([N+](=O)[O-])cc1)C(=O)CC(C)(C)C2
3.39

Assign log10 CC50 at 96 h to the following record: CC1(C)CC(=O)c2c(nc(-c3ccc(C(F)(F)F)cc3)n2O)C1
1.66

Reference source for all entries: ChEMBL document CHEMBL6092128
